Where these numbers come from: paper PMC10673511

Here, each record is paired with measured melting point data.

| molecule | melting point |
| --- | --- |
| CC1(C)CON(CCCC(P(=O)(O)O)P(=O)(O)O)C1=O | > 250 °C |

Exercise: Answer with reported melting point of CCCc1n[nH]c(O)c1CC(P(=O)(O)O)P(=O)(O)O [Compound 12c]
Solution: > 250 °C

Exercise: Answer with reported melting point of CCc1n[nH]c(O)c1CC(P(=O)(O)O)P(=O)(O)O [Compound 12b]
Solution: > 250 °C

Exercise: Answer with reported melting point of Cc1n[nH]c(O)c1CC(P(=O)(O)O)P(=O)(O)O [Compound 12a]
Solution: > 250 °C

Exercise: Answer with reported melting point of O=P(O)(O)C(Cc1c(C(F)F)n[nH]c1O)P(=O)(O)O [Compound 12f]
Solution: 228 to 229 °C
